settings: in water, 318.15 K

- Structure notation: "[NH3+]C1CCCCC1.[S-]c1nc2ccccc2s1"
  solubility (mole fraction): "3.24e-05"

* * *

conditions: in water, 333.15 K

- Structure notation: "[NH3+]C1CCCCC1.[S-]c1nc2ccccc2s1"
  solubility (mole fraction): "7.55e-05"

* * *

conditions: in 1,4-dioxane, 313.15 K
Parameter measured: solubility (mole fraction)

- Structure notation: "[NH3+]C1CCCCC1.[S-]c1nc2ccccc2s1"
  Assay result: 0.000418

* * *

conditions: in MIBK, 328.15 K

- Structure notation: "[NH3+]C1CCCCC1.[S-]c1nc2ccccc2s1"
  solubility (mole fraction): 0.00141
